Experiment: Toxicity liver stage against HepG2, at 10uM
Type: cell-based
Design: test concentration 10 uM, cell line HepG2-A16-CD81EGFP
Conditions: human, HepG2-A16-CD81EGFP cells; read-out: INHIBITION
quantity: cytotoxicity at 10 µM (%)
Form entry: value (%) — number only.

INSERT INTO measurements (compound, output_unit, observed) VALUES
  ('CCC(C)N(Cc1cc(C)n[nH]1)Cc1ccccc1Cl (stereo not drawn)', '%', 6.65);

API: the following record is the query input.
I would be grateful if you could share the reported cytotoxicity at 10 µM for CS(=O)(=O)CCCOc1cccc(-n2cccn2)c1 . -9.22
